TEST_SYSTEM: Alkaline phosphatase, tissue-nonspecific isozyme (Homo sapiens, UniProt P05186)
Sequence (P05186 whole entry): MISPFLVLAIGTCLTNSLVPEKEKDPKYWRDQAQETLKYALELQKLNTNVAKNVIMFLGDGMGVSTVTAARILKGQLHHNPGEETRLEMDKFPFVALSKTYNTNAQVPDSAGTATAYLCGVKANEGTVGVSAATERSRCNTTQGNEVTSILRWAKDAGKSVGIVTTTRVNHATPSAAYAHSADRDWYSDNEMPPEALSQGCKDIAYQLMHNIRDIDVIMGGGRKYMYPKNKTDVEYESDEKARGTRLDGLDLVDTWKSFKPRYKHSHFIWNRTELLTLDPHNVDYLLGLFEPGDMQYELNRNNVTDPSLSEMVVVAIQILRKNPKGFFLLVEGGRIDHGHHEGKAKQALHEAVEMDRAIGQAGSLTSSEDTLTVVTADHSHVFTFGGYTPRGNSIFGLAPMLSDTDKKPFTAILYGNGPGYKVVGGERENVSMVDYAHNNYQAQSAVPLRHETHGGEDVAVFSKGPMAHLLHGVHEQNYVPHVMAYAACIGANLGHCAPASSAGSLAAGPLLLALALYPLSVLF
ASSAY_NOTES: potency against alkaline phosphatase TNAP – biochemical, luminescent, dose response, SAR follow-up (AID 1056)
Calls of active or inactive are those of the source.
Outcomes: Yes (active), No (inactive)

# STRUCTURE, LABEL
data = [
    ("COC(=O)c1cc(-c2ccc(F)cc2F)[nH]n1", "Yes"),
    ("O=C(Cn1ccnc1-c1ccccc1)c1ccc(O)c(O)c1", "No"),
    ("CCN(CC)C(=O)CSc1nnc(-c2ccccc2OC)[nH]1", "Yes"),
    ("Cc1ccc(C)c(-n2sc3ccc(F)cc3c2=O)c1", "No"),
]

###

TEST_SYSTEM: Fatty acid synthase (Homo sapiens, UniProt P49327)
Sequence (P49327 whole entry): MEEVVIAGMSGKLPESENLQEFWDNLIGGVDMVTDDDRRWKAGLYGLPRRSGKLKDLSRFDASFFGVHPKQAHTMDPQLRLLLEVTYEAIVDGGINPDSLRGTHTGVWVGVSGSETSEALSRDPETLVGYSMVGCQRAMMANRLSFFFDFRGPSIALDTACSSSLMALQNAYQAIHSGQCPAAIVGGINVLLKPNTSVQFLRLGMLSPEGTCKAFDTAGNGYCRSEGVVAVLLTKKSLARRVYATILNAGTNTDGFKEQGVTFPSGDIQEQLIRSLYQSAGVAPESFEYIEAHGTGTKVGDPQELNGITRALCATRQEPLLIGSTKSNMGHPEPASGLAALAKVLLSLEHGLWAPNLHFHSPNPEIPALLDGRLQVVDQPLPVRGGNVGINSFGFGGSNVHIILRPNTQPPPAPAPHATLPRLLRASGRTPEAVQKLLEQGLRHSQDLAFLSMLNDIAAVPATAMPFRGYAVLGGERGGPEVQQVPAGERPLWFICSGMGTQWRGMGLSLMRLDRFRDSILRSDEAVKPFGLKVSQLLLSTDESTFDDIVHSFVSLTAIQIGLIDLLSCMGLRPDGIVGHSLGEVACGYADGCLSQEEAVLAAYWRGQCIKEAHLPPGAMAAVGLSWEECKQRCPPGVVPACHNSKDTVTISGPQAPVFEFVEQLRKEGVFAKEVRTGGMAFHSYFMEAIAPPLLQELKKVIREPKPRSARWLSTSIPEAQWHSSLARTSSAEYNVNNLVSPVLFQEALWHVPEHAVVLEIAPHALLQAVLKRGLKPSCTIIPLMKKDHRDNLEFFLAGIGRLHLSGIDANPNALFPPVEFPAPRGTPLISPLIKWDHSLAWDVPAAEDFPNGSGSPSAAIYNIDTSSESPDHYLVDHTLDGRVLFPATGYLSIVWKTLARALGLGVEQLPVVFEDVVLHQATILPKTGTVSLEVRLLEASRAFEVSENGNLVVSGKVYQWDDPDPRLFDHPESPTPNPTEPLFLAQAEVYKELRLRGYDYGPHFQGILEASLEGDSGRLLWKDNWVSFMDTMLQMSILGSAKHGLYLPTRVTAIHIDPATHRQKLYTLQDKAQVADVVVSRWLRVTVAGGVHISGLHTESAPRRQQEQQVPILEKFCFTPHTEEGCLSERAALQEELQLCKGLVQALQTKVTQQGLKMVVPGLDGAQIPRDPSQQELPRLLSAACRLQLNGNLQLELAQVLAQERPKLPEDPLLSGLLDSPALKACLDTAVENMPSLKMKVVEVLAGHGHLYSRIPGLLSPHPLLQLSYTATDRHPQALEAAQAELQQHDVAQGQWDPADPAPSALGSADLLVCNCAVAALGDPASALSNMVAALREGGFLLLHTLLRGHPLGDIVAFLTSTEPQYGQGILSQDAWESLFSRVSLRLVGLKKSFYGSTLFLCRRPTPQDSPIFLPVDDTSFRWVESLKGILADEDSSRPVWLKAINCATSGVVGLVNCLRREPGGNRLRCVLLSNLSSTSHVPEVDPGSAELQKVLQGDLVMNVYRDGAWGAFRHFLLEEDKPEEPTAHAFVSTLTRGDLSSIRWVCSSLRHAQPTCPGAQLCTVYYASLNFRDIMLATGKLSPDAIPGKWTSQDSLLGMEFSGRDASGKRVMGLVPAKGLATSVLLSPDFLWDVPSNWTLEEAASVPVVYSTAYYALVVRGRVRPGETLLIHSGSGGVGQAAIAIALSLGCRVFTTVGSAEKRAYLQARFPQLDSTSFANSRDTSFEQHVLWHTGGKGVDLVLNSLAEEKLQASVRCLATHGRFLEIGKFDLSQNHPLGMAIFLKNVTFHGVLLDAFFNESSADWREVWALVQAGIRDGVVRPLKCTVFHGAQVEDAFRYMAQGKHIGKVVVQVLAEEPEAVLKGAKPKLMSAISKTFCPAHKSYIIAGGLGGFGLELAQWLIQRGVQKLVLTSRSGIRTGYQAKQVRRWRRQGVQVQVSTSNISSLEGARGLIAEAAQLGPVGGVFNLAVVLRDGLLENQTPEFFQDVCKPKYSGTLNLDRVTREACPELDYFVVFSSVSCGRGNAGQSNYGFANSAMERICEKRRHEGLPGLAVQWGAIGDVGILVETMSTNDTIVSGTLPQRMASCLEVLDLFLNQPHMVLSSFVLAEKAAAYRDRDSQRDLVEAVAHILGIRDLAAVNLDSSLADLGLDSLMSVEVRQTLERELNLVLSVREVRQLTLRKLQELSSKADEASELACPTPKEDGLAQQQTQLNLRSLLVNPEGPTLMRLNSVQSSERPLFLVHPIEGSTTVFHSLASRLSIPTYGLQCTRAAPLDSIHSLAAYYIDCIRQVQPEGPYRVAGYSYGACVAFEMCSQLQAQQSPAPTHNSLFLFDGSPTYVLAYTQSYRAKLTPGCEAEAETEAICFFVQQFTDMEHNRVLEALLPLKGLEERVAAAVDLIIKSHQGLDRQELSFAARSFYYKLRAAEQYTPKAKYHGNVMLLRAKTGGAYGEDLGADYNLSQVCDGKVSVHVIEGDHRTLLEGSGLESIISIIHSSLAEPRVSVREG
ASSAY_NOTES: inhibition of human FAS-TE enzyme activity – biochemical, kinetic fluorescence intensity, dose response (AID 624326);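 further: rate of fluorescence rise from hydrolysis of a fluorogenic O-methyl fluorescein ester substrate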
Format: functional
Calls of active or inactive are those of the source.
# key: entry, value: IC50

# COMPOUND, IC50
records = [
    ("CN1C[C@H](C(=O)N[C@]2(C)O[C@@]3(O)[C@@H]4CCCN4C(=O)[C@H](Cc4ccccc4)N3C2=O)CC2c3cccc4[nH]cc(c34)C[C@H]21 (stereo not given in full)", "8.09 µM (active)"),
    ("O=C(COC(=O)c1cc([N+](=O)[O-])ccc1N1CCOCC1)Nc1ccc(Cl)cn1", "6.06 µM (active)"),
    ("CC(C)(C)c1ccc(C(=O)N2CCC2(C)C(=O)Nc2cccc(C#N)c2)cc1 (stereo not given)", "7.78 µM (active)"),
    ("O=C(Nn1c(C2CCCCC2)nc2ccccc2c1=O)c1ccc(Cl)c([N+](=O)[O-])c1", "11.2 µM (active)"),
    ("O=C(NC(=S)Nc1ccccc1)c1cc([N+](=O)[O-])ccc1N1CCOCC1", "8.19 µM (active)"),
    ("COC(=O)c1cc(C(=O)NC(C)C2CC3CCC2C3)cc([N+](=O)[O-])c1 (stereo not given)", "11.5 µM (active)"),
    ("COc1ccc(C(=O)N/C(=C\\c2cn(S(=O)(=O)N(C)C)c3ccccc23)C(=O)NCCCN2CCOCC2)cc1", "7.83 µM (active)"),
    ("CCCCCCn1c(=O)c(F)cn(Cc2ccc(OC)c([N+](=O)[O-])c2)c1=O", "11.3 µM (active)"),
    ("COc1ccc(/C=C(/NC(=O)c2ccc([N+](=O)[O-])cc2)C(=O)NC(C)(C)C)cc1", "2.56 µM (active)"),
    ("N#Cc1c(C(F)(F)F)cc(-c2cccs2)nc1SC(C(=O)O)c1ccccc1 (stereo not given)", "5.81 µM (active)"),
]

###

TEST_SYSTEM: Ubiquitin-conjugating enzyme E2 N (Homo sapiens);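 further: Dose-response confirmation in a TR-FRET assay detecting UBC13-driven polyubiquitin chain formation, inhibition measured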
Sequence (P61088 whole entry): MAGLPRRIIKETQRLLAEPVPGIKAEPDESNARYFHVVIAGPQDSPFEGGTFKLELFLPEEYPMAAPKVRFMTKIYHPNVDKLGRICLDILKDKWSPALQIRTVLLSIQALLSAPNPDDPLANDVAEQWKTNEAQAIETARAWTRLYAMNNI
Assay type: functional
Active and inactive are the calls of the source.
Outcomes: 1 = active, 0 = inactive

# MOLECULE, LABEL
records = [
    ("COc1ccc(C(=O)Nn2c(SCC(=O)NCc3ccccc3)nc3ccccc3c2=O)cc1", 1),
    ("C#CCOCCOCCOCCNc1nc(N2CCN(C(=O)[C@H](CCCCN)n3cc([C@@H](N)CC(C)C)nn3)CC2)nc(N2CCN(C(=O)[C@H](CCCCN)n3cc([C@@H](N)CC(C)C)nn3)CC2)n1", 1),
    ("CCOc1ccc(N(C(=O)c2snc(C(N)=O)c2N)C(C(=O)NCC2CCCO2)c2c[nH]c3ccccc23)cc1 (centres undefined)", 1),
    ("Cn1c(=O)c2c(ncn2Cc2ccccc2)n(C)c1=O", 0),
]

###

# key: entry, value: IC50
TEST_SYSTEM: UniProt:P31941
Sequence (P31941 whole entry): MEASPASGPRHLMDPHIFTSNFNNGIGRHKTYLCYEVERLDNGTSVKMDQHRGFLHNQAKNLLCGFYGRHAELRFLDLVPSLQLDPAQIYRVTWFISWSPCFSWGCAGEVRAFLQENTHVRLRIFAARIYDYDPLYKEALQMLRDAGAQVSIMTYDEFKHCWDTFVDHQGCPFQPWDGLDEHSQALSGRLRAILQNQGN
ASSAY_NOTES: Dose Response confirmation of small molecule APOBEC3A DNA Deaminase Inhibitors via a fluorescence-based single-stranded DNA deaminase assay. [Related pubchem assays (depositor defined):AID493011, AID493024]
Assay type: functional
The source made the active and inactive calls.

# STRUCTURE, IC50
data = [
    ("CCCCCn1c2c(c(=N)c3ccccc31)CCC2", "2.62 µM (active)"),
    ("Cc1cc(C(=O)O)ccc1-c1ccc(/C=C2\\NC(=O)N(Cc3ccc(F)cc3)C2=O)o1", "20.8 µM (active)"),
    ("O=C(/C=C/c1ccco1)N1CCN(S(=O)(=O)c2cccc([N+](=O)[O-])c2)CC1", "15.5 µM (active)"),
    ("CCCCn1c(N)c(N(CCOC)C(=O)c2cc(-c3ccc(OC)c(OC)c3)nc3ccccc23)c(=O)[nH]c1=O", "7.62 µM (active)"),
]

###

TEST_SYSTEM: Estrogen receptor beta (Homo sapiens, UniProt Q92731);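 further: recombinant ER-beta bound to coactivator SRC1 peptide in presence of estradiol agonist; inhibitors block coactivator peptide binding and lower the FRET signal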
Sequence (Q92731 whole entry): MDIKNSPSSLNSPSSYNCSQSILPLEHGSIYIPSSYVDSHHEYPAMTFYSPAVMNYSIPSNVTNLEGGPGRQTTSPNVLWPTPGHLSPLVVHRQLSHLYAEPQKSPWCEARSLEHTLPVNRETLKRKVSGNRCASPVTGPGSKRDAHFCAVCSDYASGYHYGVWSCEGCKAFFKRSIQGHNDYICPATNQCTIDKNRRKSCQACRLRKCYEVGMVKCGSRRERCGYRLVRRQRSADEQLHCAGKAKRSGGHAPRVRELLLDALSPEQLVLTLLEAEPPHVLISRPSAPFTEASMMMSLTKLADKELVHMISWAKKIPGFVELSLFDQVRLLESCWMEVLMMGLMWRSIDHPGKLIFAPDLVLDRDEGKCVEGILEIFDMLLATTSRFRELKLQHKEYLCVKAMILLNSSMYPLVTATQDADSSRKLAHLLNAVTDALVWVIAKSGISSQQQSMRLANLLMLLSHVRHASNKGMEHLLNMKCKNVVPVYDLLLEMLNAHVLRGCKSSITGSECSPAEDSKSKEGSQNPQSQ
Activity calls are given as the source filed them.
MEASURED_QUANTITY: IC50

# COMPOUND, TEST_SYSTEM, MEASURED_QUANTITY, READOUT_VALUE
measured = [
    ("COc1ccc(NC2=NC(=O)S/C2=C\\c2ccc(N(C)C)cc2)cc1", "Estrogen receptor beta (Homo sapiens, UniProt Q92731)", "IC50", "12.7 µM (active)"),
    ("O=C(Cn1c(=O)n(Cc2ccco2)c(=O)c2c3c(sc21)CCCCC3)Nc1ccccc1", "Estrogen receptor beta (Homo sapiens, UniProt Q92731)", "IC50", "6.57 µM (active)"),
    ("O=C(Nc1ccc(N2CCCC2)cc1)C(Cl)c1ccccc1 (stereo not given)", "Estrogen receptor beta (Homo sapiens, UniProt Q92731)", "IC50", "> 50 µM (not active)"),
    ("Cc1csc2ncc(C(=O)N3c4ccccc4CC3C)c(=O)n12 (stereo not given)", "Estrogen receptor beta (Homo sapiens, UniProt Q92731)", "IC50", "> 50 µM (not active)"),
    ("CCOc1[nH]c(/N=C/c2ccco2)c(C#N)c1C#N", "Estrogen receptor beta (Homo sapiens, UniProt Q92731)", "IC50", "18.5 µM (active)"),
]

###

TEST_SYSTEM: Orexin receptor type 2 (Homo sapiens)
Sequence (O43614 whole entry): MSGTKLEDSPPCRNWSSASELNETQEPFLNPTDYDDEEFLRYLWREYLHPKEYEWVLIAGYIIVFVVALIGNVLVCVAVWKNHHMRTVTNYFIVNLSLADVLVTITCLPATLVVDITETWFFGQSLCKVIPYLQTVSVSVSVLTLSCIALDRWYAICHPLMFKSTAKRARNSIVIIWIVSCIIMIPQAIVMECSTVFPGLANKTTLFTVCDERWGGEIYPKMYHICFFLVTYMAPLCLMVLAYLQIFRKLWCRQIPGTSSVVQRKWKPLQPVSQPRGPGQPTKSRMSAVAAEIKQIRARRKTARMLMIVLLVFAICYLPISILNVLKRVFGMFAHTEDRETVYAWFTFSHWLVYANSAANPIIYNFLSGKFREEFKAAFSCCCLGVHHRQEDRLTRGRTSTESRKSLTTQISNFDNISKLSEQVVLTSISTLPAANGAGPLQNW
ASSAY_NOTES: Counterscreen assay for antagonists of the orexin 1 receptor (OX1R; HCRTR1): Homogeneous Time Resolved Fluorescence (HTRF)-based cell-based dose response assay for antagonists of the orexin 2 receptor (OX2R; HCRTR2), run by assay provider.
Assay type: functional
Activity calls are given as the source filed them.
Outcomes: active, inactive

# STRUCTURE, TEST_SYSTEM, LABEL
records = [
    ("O=C(N/N=C/c1c(Cl)[nH]c2ccccc12)c1sc2ccccc2c1Cl", "Orexin receptor type 2 (Homo sapiens)", "active"),
    ("Cc1nn(-c2ccccc2)c(C)c1/C=N/NC(=O)c1cc(-c2cccs2)[nH]n1", "Orexin receptor type 2 (Homo sapiens)", "inactive"),
    ("Cc1c(C(=O)Nc2ccc(N3CCOCC3)cc2)oc2ccccc12", "Orexin receptor type 2 (Homo sapiens)", "inactive"),
    ("COC(=O)c1ccccc1NC(=O)c1sc(=S)n(C)c1N", "Orexin receptor type 2 (Homo sapiens)", "inactive"),
]

###

# key: entry, value: IC50
TEST_SYSTEM: Coagulation factor XII (Homo sapiens);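 further: activated factor XIIa alpha cleaving a fluorogenic AMC peptide substrate; inhibitor potency from loss of enzyme activity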
Sequence (P00748 20-372 limits assumed): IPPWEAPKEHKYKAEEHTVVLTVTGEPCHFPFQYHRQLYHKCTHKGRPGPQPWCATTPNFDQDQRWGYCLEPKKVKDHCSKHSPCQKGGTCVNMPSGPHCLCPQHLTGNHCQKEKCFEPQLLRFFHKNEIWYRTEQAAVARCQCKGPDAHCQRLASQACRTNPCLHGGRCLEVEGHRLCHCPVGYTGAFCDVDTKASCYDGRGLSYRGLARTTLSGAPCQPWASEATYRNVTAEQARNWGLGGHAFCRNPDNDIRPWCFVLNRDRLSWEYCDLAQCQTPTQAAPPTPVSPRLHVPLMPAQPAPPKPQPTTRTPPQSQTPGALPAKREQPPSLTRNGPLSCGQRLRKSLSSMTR
Sequence (P00748 373-615 limits assumed): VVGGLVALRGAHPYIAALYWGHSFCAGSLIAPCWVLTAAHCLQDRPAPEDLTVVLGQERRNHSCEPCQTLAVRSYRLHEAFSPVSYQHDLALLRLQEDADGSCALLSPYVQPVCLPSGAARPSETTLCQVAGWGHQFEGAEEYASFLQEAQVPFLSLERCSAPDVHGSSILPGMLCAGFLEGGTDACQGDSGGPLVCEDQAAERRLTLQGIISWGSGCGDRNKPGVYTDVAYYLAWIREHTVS
Format: functional
Active and inactive are the calls of the source.

# STRUCTURE, TEST_SYSTEM, IC50
measured = [
    ("CCc1c(C)nc2ncnn2c1N1CCC(C(=O)Nc2ccccc2)CC1", "Coagulation factor XII (Homo sapiens)", "> 50 µM (inactive)"),
    ("CCNc1ccc2c(Cl)cc(=O)oc2c1", "Coagulation factor XII (Homo sapiens)", "> 50 µM (inactive)"),
    ("COCCNCC(=O)Nc1nc(C)cs1", "Coagulation factor XII (Homo sapiens)", "> 50 µM (inactive)"),
    ("Cc1ccc(NC(=O)CSc2nnc([C@H](C)NC(=O)OC(C)(C)C)o2)c(C)c1", "Coagulation factor XII (Homo sapiens)", "> 50 µM (inactive)"),
]
